Biological target: cdk2/cyclin E (Homo sapiens, UniProt P24941)
Experiment: Cyclin-dependent kinase assay, cdk2/cyclin E
Settings: CDK2 IC50, nM, GST-pRb substrate, 10 µM ATP
Structures can show the parent of a compound that is named as a salt.
Param label: returns satisfied when IC50 < 40 nM, returns not satisfied otherwise, including exact equality.

A selection of reference data follows.
| compound | categoryLabel |
| --- | --- |
| CC(CC(=O)N1CCC(Nc2nc(N[C@H]3CC[C@H](N)CC3)nc3c2ncn3C2CCCC2)CC1)CC(C)(C)C (mixture of isomers) [compound 45, dihydrochloride] | not satisfied |
| CCCS(=O)(=O)N1CCC(Nc2nc(N[C@H]3CC[C@H](N)CC3)nc3c2ncn3C2CCCC2)CC1 [compound 131, dihydrochloride] | satisfied |
| N[C@H]1CC[C@H](Nc2nc(NC3CCN(S(=O)(=O)c4ccc(I)cc4)CC3)c3ncn(C4CCCC4)c3n2)CC1 [compound 122, dihydrochloride] | satisfied |
| N[C@H]1CC[C@H](Nc2nc(NC3CCN(C(=O)NCCc4ccccc4)CC3)c3ncn(C4CCCC4)c3n2)CC1 [compound 197, dihydrochloride] | satisfied |

Query: Bench note: check whether Cc1ccc(S(=O)(=O)N2CCC(Nc3nc(N[C@H]4CC[C@H](N)CC4)nc4c3ncn4C3CCCC3)CC2)cc1 [compound 124, dihydrochloride] shows IC50 below 40 nM
Result: satisfied

Query: Please check: IC50 for N[C@H]1CC[C@H](Nc2nc(NC3CCN(C(=O)Nc4cccc(C(F)(F)F)c4)CC3)c3ncn(C4CCCC4)c3n2)CC1 [compound 159, dihydrochloride] , strictly under 40 nM or not?
Result: satisfied

Query: Below 40 nM on IC50? Entry CCS(=O)(=O)N1CCC(Nc2nc(N[C@H]3CC[C@H](N)CC3)nc3c2ncn3C2CCCC2)CC1 [compound 139, dihydrochloride]
Result: satisfied

Query: Determine if N[C@H]1CC[C@H](Nc2nc(NC3CCN(C(=O)C4CCCC4)CC3)c3ncn(C4CCCC4)c3n2)CC1 shows IC50 strictly lower than 40 nM.
Result: not satisfied

Query: Please let me know if COc1ccc(S(=O)(=O)N2CCC(Nc3nc(N[C@H]4CC[C@H](N)CC4)nc4c3ncn4C3CCCC3)CC2)cc1 [compound 142, dihydrochloride] shows IC50 below 40 nM.
Result: satisfied

Query: In the record for N[C@H]1CC[C@H](Nc2nc(NC3CCN(S(=O)(=O)/C=C/c4ccccc4)CC3)c3ncn(C4CCCC4)c3n2)CC1 [compound 118, dihydrochloride] , is IC50 less than 40 nM?
Result: satisfied

Query: Say whether its IC50 is strictly beneath 40 nM. Entry: CCCCCCNC(=O)N1CCC(Nc2nc(N[C@H]3CC[C@H](N)CC3)nc3c2ncn3C2CCCC2)CC1 [compound 185, dihydrochloride]
Result: not satisfied

----------
Biological target: cdk2/cyclin E (Homo sapiens)
Test: Cyclin-dependent kinase assay, cdk2/cyclin E
Settings: CDK2 IC50, nM, GST-pRb substrate, 10 µM ATP
Counter-ions that a name gives are not always drawn.
measuredQuantity: IC50 (nM)
Return type: number; implicit unit nM.

| compound | unitAbbrev | IC50 |
| --- | --- | --- |
| N[C@H]1CC[C@H](Nc2nc(NC3CCN(C(=O)c4ccccc4Br)CC3)c3ncn(C4CCCC4)c3n2)CC1 | nM | 364 |
| CC(C)c1ccc(NC(=O)N2CCC(Nc3nc(N[C@H]4CC[C@H](N)CC4)nc4c3ncn4C3CCCC3)CC2)cc1 [compound 190, dihydrochloride] | nM | 40 |
| C[C@@H](NC(=O)N1CCC(Nc2nc(N[C@H]3CC[C@H](N)CC3)nc3c2ncn3C2CCCC2)CC1)c1ccccc1 [compound 160, dihydrochloride] | nM | 94 |
| CC(=O)Nc1nc(C)c(S(=O)(=O)N2CCC(Nc3nc(N[C@H]4CC[C@H](N)CC4)nc4c3ncn4C3CCCC3)CC2)s1 [compound 113, dihydrochloride] | nM | 7 |
| Cl.Cl.N[C@H]1CC[C@H](Nc2nc(NC3CCN(S(=O)(=O)c4cccc(C(F)(F)F)c4)CC3)c3ncn(C4CCCC4)c3n2)CC1 [compound 112, dihydrochloride] | nM | 48 |

Data point: N[C@H]1CC[C@H](Nc2nc(NC3CCN(C(=O)CCc4ccccc4)CC3)c3ncn(C4CCCC4)c3n2)CC1 [compound 33, dihydrochloride] ; IC50 = 30

So for N[C@H]1CC[C@H](Nc2nc(NC3CCN(S(=O)(=O)c4ccc(C(=O)O)cc4)CC3)c3ncn(C4CCCC4)c3n2)CC1 [compound 126, dihydrochloride] , the logged IC50 turned out to be 6

Looking up CC(C)CC(=O)N1CCC(Nc2nc(N[C@H]3CC[C@H](N)CC3)nc3c2ncn3C2CCCC2)CC1 [compound 60, dihydrochloride] , I found its IC50 recorded as 37

Recorded IC50 (compound CC(C)S(=O)(=O)N1CCC(Nc2nc(N[C@H]3CC[C@H](N)CC3)nc3c2ncn3C2CCCC2)CC1 [compound 125, dihydrochloride] ): 38

IC50 reading for Cc1cccc(NC(=O)N2CCC(Nc3nc(N[C@H]4CC[C@H](N)CC4)nc4c3ncn4C3CCCC3)CC2)c1 [compound 210, dihydrochloride] : 28

Given item CCOc1ccc(NC(=O)N2CCC(Nc3nc(N[C@H]4CC[C@H](N)CC4)nc4c3ncn4C3CCCC3)CC2)cc1 [compound 191, dihydrochloride] , the value recorded as its IC50 is 36

----------
Molecular target: cdk2/cyclin E (Homo sapiens)
Assay: Cyclin-dependent kinase assay, cdk2/cyclin E
Settings: CDK2 IC50, nM, GST-pRb substrate, 10 µM ATP
Where a name gives a salt, the structure may show the parent alone.
Hi! Just check whether IC50 is below 60 nM. Below gives 1, equal or above gives 0.

These solved cases illustrate the format of a correct answer.
| molecule | categoryLabel |
| --- | --- |
| N[C@H]1CC[C@H](Nc2nc(NC3CCN(S(=O)(=O)c4ccccc4[N+](=O)[O-])CC3)c3ncn(C4CCCC4)c3n2)CC1 [compound 143, dihydrochloride] | 1 |
| N[C@H]1CC[C@H](Nc2nc(NC3CCN(S(=O)(=O)c4cccs4)CC3)c3ncn(C4CCCC4)c3n2)CC1 [compound 128, dihydrochloride] | 1 |
| N[C@H]1CC[C@H](Nc2nc(NC3CCN(C(=O)Nc4cccc(Br)c4)CC3)c3ncn(C4CCCC4)c3n2)CC1 [compound 170, dihydrochloride] | 1 |
| N[C@H]1CC[C@H](Nc2nc(NC3CCN(C(=O)Nc4cc(C(F)(F)F)cc(C(F)(F)F)c4)CC3)c3ncn(C4CCCC4)c3n2)CC1 [compound 176, dihydrochloride] | 0 |
| N[C@H]1CC[C@H](Nc2nc(NC3CCN(C(=O)c4ccc(Cl)cc4)CC3)c3ncn(C4CCCC4)c3n2)CC1 | 1 |

Please examine the following record next.
Query: In plain terms, does N[C@H]1CC[C@H](Nc2nc(NC3CCN(C(=O)c4cccc(Br)c4)CC3)c3ncn(C4CCCC4)c3n2)CC1 come in under 60 nM for IC50?
Result: 0

----------
Assay: in vivo
Conditions: male, Hsd:ICR (CD-1), mouse, plasma, iv, 18 mg/kg
# concentration at 6 h per record follows
// note: answer is a bare numeric in ng/mL

Take a look at these entries with their results.
| molecule | unitAbbrev | concentration at 6 h |
| --- | --- | --- |
| COc1ccc(OC(=O)N2CCC(Nc3nc(N[C@H]4CC[C@H](N)CC4)nc4c3ncn4C3CCCC3)CC2)cc1.Cl.Cl [compound 84, dihydrochloride] | ng/mL | 6.1 |
| Cl.Cl.N[C@H]1CC[C@H](Nc2nc(NC3CCN(C(=O)Oc4ccccc4)CC3)c3ncn(C4CCCC4)c3n2)CC1 [compound 85, dihydrochloride] | ng/mL | 5.2 |
| CCOC(=O)c1ccc(NC(=O)N2CCC(Nc3nc(N[C@H]4CC[C@H](N)CC4)nc4c3ncn4C3CCCC3)CC2)cc1.Cl.Cl [compound 154, dihydrochloride] | ng/mL | 2.3 |
| COC(=O)c1ccccc1S(=O)(=O)N1CCC(Nc2nc(N[C@H]3CC[C@H](N)CC3)nc3c2ncn3C2CCCC2)CC1.Cl.Cl [compound 111, dihydrochloride] | ng/mL | 10.9 |
| Cl.Cl.N[C@H]1CC[C@H](Nc2nc(NC3CCN(C(=O)c4cccc(C(F)(F)F)c4F)CC3)c3ncn(C4CCCC4)c3n2)CC1 [compound 12, dihydrochloride] | ng/mL | 27 |

concentration at 6 h for Cl.Cl.N#Cc1ccc(S(=O)(=O)N2CCC(Nc3nc(N[C@H]4CC[C@H](N)CC4)nc4c3ncn4C3CCCC3)CC2)cc1 [compound 109, dihydrochloride] is 9.5

Given item COC(=O)c1ccc(OC(=O)N2CCC(Nc3nc(N[C@H]4CC[C@H](N)CC4)nc4c3ncn4C3CCCC3)CC2)cc1.Cl.Cl [compound 83, dihydrochloride] , the value recorded as its concentration at 6 h is 1.6

Record Cl.Cl.N[C@H]1CC[C@H](Nc2nc(NC3CCN(C(=O)Oc4ccc(Br)cc4)CC3)c3ncn(C4CCCC4)c3n2)CC1 [compound 81, dihydrochloride] , field concentration at 6 h: 5.4
